Below is a list of entries, each paired with its recorded pIC50 value.
# targetUnderTest: Human M4 (Homo sapiens, UniProt P08173)
# Construct: Human or rat M4 cDNA, along with the chimeric G protein Gqi5, were transfected into Chinese hamster ovary (CHO-K1) cells
# experiment: mAChR M4 cell-based functional assay (calcium flux, decrease of EC80 acetylcholine response)
# measurementSetup: M4/Gqi5/CHO-K1 cells; decrease of response to EC80 acetylcholine
Scale for pIC50: -log10 of concentration given in mol/L; no unit attached.

[
  {
    "compound": "Cc1ccc(F)cc1-c1cc(C#N)c(N[C@H]2C[C@@H]3CN(CC4CCOCC4)C[C@@H]3C2)nn1 [Example 146]",
    "observedResult": 7.81
  },
  {
    "compound": "Fc1cccc(-c2cc(C(F)(F)F)c(N[C@H]3C[C@@H]4CN(CC5CCOCC5)C[C@@H]4C3)nn2)c1F [Example 81]",
    "observedResult": 6.75
  }
]

Attention now turns to another entry.
The compound listed as [2H]C([2H])([C@@H]1CCOC1)N1C[C@H]2C[C@H](Nc3nnc(-c4cc(C)ccc4C)cc3C(F)(F)F)C[C@H]2C1 [Example 115] shows pIC50 equal to 6.75

* * *

Listing of recorded remaining activity at 30 µM by entry.
# targetUnderTest: Human M4 (Homo sapiens, UniProt P08173)
# Construct: Human or rat M4 cDNA, along with the chimeric G protein Gqi5, were transfected into Chinese hamster ovary (CHO-K1) cells; expressed in transfected cells; host or cells: CHO-K1 (Chinese hamster ovary, ATCC), stably co-expressing Gqi5
# experiment: mAChR M4 cell-based functional assay (calcium flux, decrease of EC80 acetylcholine response)
# measurementSetup: % ACh maximum at 30 μM; read-out: Human M4 Emin
The reply should contain only the number, in %.

[
  {
    "molecule": "Cn1ccc2ccc(-c3cc(C(F)(F)F)c(N[C@H]4C[C@@H]5CN(CC6CCOCC6)C[C@@H]5C4)nn3)cc21",
    "observedResult": 4
  },
  {
    "molecule": "Cn1cc2cc(-c3cc(C#N)c(N[C@H]4C[C@@H]5CN(C[C@H]6CC7CCC6O7)C[C@@H]5C4)nn3)ccc2n1 (stereo partly drawn)",
    "observedResult": 5
  },
  {
    "molecule": "[2H]C([2H])(C1CCOCC1)N1C[C@H]2C[C@H](Nc3nnc(-c4cc(F)cc(F)c4F)cc3C(F)(F)F)C[C@H]2C1",
    "observedResult": 3
  },
  {
    "molecule": "Cn1cc2cc(-c3cc(C(F)(F)F)c(N[C@H]4C[C@@H]5CN(C[C@@H]6COCCO6)C[C@@H]5C4)nn3)ccc2n1",
    "observedResult": 6
  }
]

Value of remaining activity at 30 µM reported for the molecule "Cn1cc2cc(-c3cc(C(F)(F)F)c(N[C@H]4C[C@@H]5CN(C[C@H]6CCOC6)C[C@@H]5C4)nn3)ccc2n1" is 6

Noted for "Cc1ccc(-c2cc(C(F)(F)F)c(N[C@H]3C[C@@H]4CN(CC5CCOCC5)C[C@@H]4C3)nn2)c(C)c1" : its remaining activity at 30 µM reads 3

* * *

# targetUnderTest: Human M4 (Homo sapiens, UniProt P08173)
# Construct: Human or rat M4 cDNA, along with the chimeric G protein Gqi5, were transfected into Chinese hamster ovary (CHO-K1) cells; expressed in transfected cells; host or cells: CHO-K1 (Chinese hamster ovary, ATCC), stably co-expressing Gqi5
# Sequence (P08173 1-479): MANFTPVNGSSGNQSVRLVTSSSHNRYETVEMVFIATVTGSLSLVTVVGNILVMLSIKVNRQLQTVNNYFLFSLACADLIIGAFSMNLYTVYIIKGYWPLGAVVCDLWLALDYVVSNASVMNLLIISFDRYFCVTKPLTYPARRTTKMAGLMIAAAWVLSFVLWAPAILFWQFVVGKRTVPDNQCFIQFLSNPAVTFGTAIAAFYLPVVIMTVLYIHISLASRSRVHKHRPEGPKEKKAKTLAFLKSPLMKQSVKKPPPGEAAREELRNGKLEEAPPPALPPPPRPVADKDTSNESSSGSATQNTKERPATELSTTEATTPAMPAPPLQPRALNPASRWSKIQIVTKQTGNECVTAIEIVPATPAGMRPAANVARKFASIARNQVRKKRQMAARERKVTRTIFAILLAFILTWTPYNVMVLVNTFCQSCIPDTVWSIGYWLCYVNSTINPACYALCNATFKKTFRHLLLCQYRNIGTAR
# experiment: mAChR M4 cell-based functional assay (calcium flux, decrease of EC80 acetylcholine response)
# measurementSetup: % ACh maximum at 30 μM; read-out: Human M4 Emin
Each record here notes measured remaining activity at 30 µM.
# number only, unit % dropped from output

Example entries begin here.
[
  {
    "compound": "CC(C)Oc1cc(F)c(-c2cc(C(F)(F)F)c(N[C@H]3C[C@@H]4CN(CC5CCOCC5)C[C@@H]4C3)nn2)cc1F",
    "remaining activity at 30 µM, %": 3
  },
  {
    "compound": "FC(F)(F)c1cc(-c2ccc3ncsc3c2)nnc1N[C@H]1C[C@@H]2CN(CC3CCOCC3)C[C@@H]2C1",
    "remaining activity at 30 µM, %": 3
  },
  {
    "compound": "Cc1cc(-c2cc(C(F)(F)F)c(N[C@H]3C[C@@H]4CN(CC5CCOCC5)C[C@@H]4C3)nn2)c(F)cc1F",
    "remaining activity at 30 µM, %": 2
  },
  {
    "compound": "Cc1ccc(F)cc1-c1cc(C(F)(F)F)c(N[C@H]2C[C@@H]3CN(C[C@H]4CC5CCC4O5)C[C@@H]3C2)nn1 (stereo partly drawn)",
    "remaining activity at 30 µM, %": 2
  },
  {
    "compound": "Fc1ccc(F)c(-c2cc(C(F)(F)F)c(N[C@H]3C[C@@H]4CN(CC5CCOCC5)C[C@@H]4C3)nn2)c1",
    "remaining activity at 30 µM, %": 3
  }
]

Please find the next compound below.
Please fill in: remaining activity at 30 µM reported for "Fc1cc(F)c(F)c(-c2cc(C(F)(F)F)c(N[C@H]3C[C@@H]4CN(CC5CCOCC5)C[C@@H]4C3)nn2)c1" = 3

All figures here come from patent US20230183219A1.
